# Lookup of reported self-splicing fitness (ln) keyed by entry
assay: self-splicing fitness, log relative to wild type (ln ratio); higher = more splicing; Tetrahymena group I intron in knt gene, E. coli kanamycin selection, DiMSum; sequences stand for … in CUCUCU…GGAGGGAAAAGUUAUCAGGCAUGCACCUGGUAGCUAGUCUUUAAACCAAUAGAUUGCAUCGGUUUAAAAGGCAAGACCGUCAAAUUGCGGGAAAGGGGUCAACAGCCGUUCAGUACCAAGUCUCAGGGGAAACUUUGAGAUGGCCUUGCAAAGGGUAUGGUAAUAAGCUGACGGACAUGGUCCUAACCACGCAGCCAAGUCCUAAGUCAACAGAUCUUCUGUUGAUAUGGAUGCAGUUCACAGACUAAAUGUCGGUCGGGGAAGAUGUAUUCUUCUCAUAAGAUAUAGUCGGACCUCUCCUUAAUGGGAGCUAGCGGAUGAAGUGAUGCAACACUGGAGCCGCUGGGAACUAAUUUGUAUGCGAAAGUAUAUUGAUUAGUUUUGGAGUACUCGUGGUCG; conditions: 37 °C;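 note: selection with 25 µg/mL kanamycin versus none on LB agar overnight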
Please give the numeric answer without any surrounding text.

Consider the reported self-splicing fitness (ln) for these sequences:
GUAAAGCAAUAUUACGACUG: -1.48
CGUGAGCAAUAUUACGCUCG: -2.64
GAUGAGCAAUAUUACGAUUA: -1.4
AAUGAGCAAUAUUACGGAAG: -2.63
AUGUAGCAAUAUUACGCACC: -0.228

Please report self-splicing fitness (ln) for the following sequence: AGUAAGCAAUAUUACGCCGA
-0.709

Please report self-splicing fitness (ln) for the following sequence: UUGAAGCAAUAUUACGCGUA
-0.247

Please report self-splicing fitness (ln) for the following sequence: UGACAGCAAUAUUACGCCCU
0.0969
